# protocol: ATG_BRE_CIS: Attagene CIS-FACTORIAL HepG2 Assay for human Bone Morphogenetic Protein (BMP) Response Element (BRE) (AID 2282933)
# condition details: HepG2 BMP response element reporter, Attagene transcription factor profiling; actives raise or lower the signal
The source made the active and inactive calls. The calls were made as follows: active = hit-call score of the fitted dose curve at least 0.9, where 1 is the maximum; inactive = score below 0.9.
Field 'call' accepts 1 for active, -1 for inactive

Use these answered entries as a reference point.
>  <mol smiles>
FC(F)=C(F)C(F)(F)C(F)(F)C(F)(F)C(F)(F)C(F)(F)C(F)(F)F

>  <class>
-1

$$$$
>  <mol smiles>
CCCCCCCCCCCCCCCCOS(=O)(=O)O

>  <class>
-1

$$$$
>  <mol smiles>
O=S1(=O)CCCO1

>  <class>
-1

$$$$

Recorded test call requested for CCN(CC)C(=S)SSC(=S)N(CC)CC
1

Now the molecule O=C(O)[C@H](O)[C@@H](O)C(=O)O
-1

Now the molecule COS(C)(=O)=O
-1

Now the molecule OCCC(F)(F)C(F)(F)C(F)(F)C(F)(F)F
-1

----------
# Read-out: Bcl-2 (BAX) gene, BAX (gene 581)
# protocol: LTEA_HepaRG_BAX: Life Technologies and Expression Analysis (LTEA) Assay for Bcl-2 (BAX) gene using HepaRG (AID 2283470)
# condition details: mRNA level, 48 h; actives raise or lower the signal
# Description: LTEA_HepaRG is a cell based, multiplexed-readout assay that uses HepaRG, a human liver cell line, with measurements taken at 48 hours after chemical dosing on a 96-well plate.LTEA_HepaRG_BAX is one of 102 assay component(s) measured in the LTEA HepaRG cell culture assay. It is a marker of Cell proliferation, survival, death.Data from the assay component LTEA_HepaRG_BAX was analyzed into 1 endpoint. […]
Calls of active or inactive are those of the source. Rule for the calls: active = hit-call score of the fitted dose curve at least 0.9, where 1 is the maximum; inactive = score below 0.9.
observed property: outcome

>  <mol smiles>
CC(C)c1nnc2ccc(-c3ocnc3-c3cc(F)ccc3F)cn12

>  <outcome>
inactive

$$$$
>  <mol smiles>
NNC(=O)c1ccncc1

>  <outcome>
inactive

$$$$
>  <mol smiles>
COCc1nnc(-c2ccc[n+]([O-])c2)n1-c1c(Cl)c(Cl)cc2[nH]c(=O)c(=O)[nH]c12

>  <outcome>
inactive

$$$$
>  <mol smiles>
Nc1ccn([C@@H]2O[C@H](CO)[C@@H](O)[C@@H]2O)c(=O)n1

>  <outcome>
inactive

$$$$

Required: outcome, one value per compound below.
1. CCCCCCCCCC
2. OC[C@H]1O[C@@H]2O[C@H]3[C@H](O)[C@@H](O)[C@@H](O[C@H]4[C@H](O)[C@@H](O)[C@@H](O[C@H]5[C@H](O)[C@@H](O)[C@@H](O[C@H]6[C@H](O)[C@@H](O)[C@@H](O[C@H]7[C@H](O)[C@@H](O)[C@@H](O[C@H]1[C@H](O)[C@H]2O)O[C@@H]7CO)O[C@@H]6CO)O[C@@H]5CO)O[C@@H]4CO)O[C@@H]3CO

inactive
inactive

----------
# Read-out: Interleukin-8 (IL8), CXCL8 (gene 3576)
# protocol: BSK_LPS_IL8: BioMAP Diversity Plus: LPS Assay for Interleukin-8 (IL8) Biomarker Activity (AID 2283078)
# condition details: primary human HUVEC with PBMC; actives raise or lower the signal
# Procedure: BSK_LPS is a cell-based, multiplexed-readout assay that uses umbilical vein endothelium and peripheral blood mononuclear cells, a human vascular primary cell co-culture, with measurements taken at 24 hours after chemical dosing in a 96-well plate.BSK_LPS_IL8 is an assay component measured in the BSK_LPS assay. It measures IL-8 antibody related to regulation of gene expression using ELISA technology.Data from the assay component BSK_LPS_IL8 was analyzed into 1 assay endpoint. […]
Activity calls are given as the source filed them. Rule for the calls: active = hit-call score of the fitted dose curve at least 0.9, where 1 is the maximum; inactive = score below 0.9.
observed property: outcome

>  <mol smiles>
C[C@]12C=CC(=O)C=C1CC[C@H]1[C@@H]3C[C@@H](O)[C@](O)(C(=O)CO)[C@@]3(C)C[C@H](O)[C@@]12F

>  <reading>
inactive

$$$$
>  <mol smiles>
c1ccc2cc3ccccc3cc2c1

>  <reading>
inactive

$$$$
>  <mol smiles>
COCc1nnc(-c2ccc[n+]([O-])c2)n1-c1c(Cl)c(Cl)cc2[nH]c(=O)c(=O)[nH]c12

>  <reading>
inactive

$$$$
>  <mol smiles>
COc1cc(C(C)C)c2c(c1)S(=O)(=O)N(COc1cc(=O)n3cccc(OCCN4CCCCC4)c3n1)C2=O

>  <reading>
inactive

$$$$

Kindly review the next molecule as well.
What does the record list as outcome for OCc1c[nH]c2ccccc12 ?
inactive

Source listed as PubChem BioAssay (EPA / NIEHS).
